target: DENV2proHeLa NS2B-NS3 protease (Dengue virus 2 Thailand/16681/84, UniProt P29990); test: cell-based; set-up: species or system DENV2proHeLa (HeLa)
Sequence (P29990 1476-2093 limits assumed): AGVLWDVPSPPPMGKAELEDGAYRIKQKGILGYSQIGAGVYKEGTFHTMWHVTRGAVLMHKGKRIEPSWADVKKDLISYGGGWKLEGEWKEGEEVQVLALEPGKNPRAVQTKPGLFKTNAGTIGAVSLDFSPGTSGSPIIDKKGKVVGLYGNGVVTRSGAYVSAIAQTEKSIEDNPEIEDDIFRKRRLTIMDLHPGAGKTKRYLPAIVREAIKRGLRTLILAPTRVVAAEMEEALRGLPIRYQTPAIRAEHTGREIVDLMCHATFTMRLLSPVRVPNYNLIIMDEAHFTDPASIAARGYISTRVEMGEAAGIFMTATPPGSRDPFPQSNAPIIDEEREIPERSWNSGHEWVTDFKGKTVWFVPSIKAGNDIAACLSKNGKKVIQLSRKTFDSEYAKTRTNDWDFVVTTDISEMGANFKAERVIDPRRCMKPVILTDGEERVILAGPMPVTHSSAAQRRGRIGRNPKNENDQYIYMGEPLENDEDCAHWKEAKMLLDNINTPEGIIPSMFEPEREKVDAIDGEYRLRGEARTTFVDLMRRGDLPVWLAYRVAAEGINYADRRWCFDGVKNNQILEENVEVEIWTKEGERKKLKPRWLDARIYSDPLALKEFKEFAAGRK
Sequence (P29990 1346-1475 partner limits assumed): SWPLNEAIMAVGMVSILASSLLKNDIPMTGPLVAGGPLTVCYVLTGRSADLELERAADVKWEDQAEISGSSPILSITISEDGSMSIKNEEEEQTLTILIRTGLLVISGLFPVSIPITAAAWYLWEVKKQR
pEC50: −log10 of the molar value.
measurement.label: pEC50

# molecule, system, result.value
data = [
    ("NC(=O)c1cccc(NC(=O)[C@@H](NC(=O)C2COc3ccccc3C2)c2ccc(OCc3ccccc3)cc2)c1 (stereo partly shown)", "DENV2proHeLa NS2B-NS3 protease (Dengue virus 2 Thailand/16681/84, UniProt P29990)", 5.17),
]

====

test: in vitro; design: species or system DENV2proHeLa (HeLa); conditions: human, denv2prohela cells
measurement.label: CC50

# compound, measurement.label, result.value
records = [
    ("CC(C)Cc1ccc(C(C)C(=O)N[C@H](C(=O)Nc2cccc(C(N)=O)c2)c2ccc(OCc3ccccc3)cc2)cc1 (stereo partly drawn) [compound 3, 3]", "CC50", "> 25 µM"),
    ("CC(C(=O)NCC1(CC(=O)N[C@H](C(=O)Nc2cccc(C(N)=O)c2)c2ccc(OCc3ccccc3)cc2)CCCCC1)c1ccc2c(c1)[nH]c1ccc(Cl)cc12 (stereo partly drawn) [compound 6, 6]", "CC50", "> 50 µM"),
    ("NC(=O)c1cccc(NC(=O)[C@@H](NC(=O)Cc2ccc(Oc3ccccc3)cc2)c2ccc(OCc3ccccc3)cc2)c1 [compound 11, 11]", "CC50", "> 50 µM"),
]
